src = ChEMBL document CHEMBL5236553

Listed here: items and their measured pEC50.
- Tested on: Human immunodeficiency virus
- METHOD: Antiviral activity against HIV-1 harboring integrase M50I mutant
- Format: functional, organism-based
- TEST CONTEXT: Human immunodeficiency virus 1
pEC50: −log10 of the molar value.

COMPOUND: C[C@@H]1CCO[C@H]2Cn3cc(C(=O)NCc4ccc(F)cc4F)c(=O)c(O)c3C(=O)N12 [DOLUTEGRAVIR]
pEC50: 8.68
--
COMPOUND: Nc1c(C(=O)NCc2ccc(F)cc2F)c(=O)n(O)c2ncc(CCCCCCO)cc12
pEC50: 8.89

---

- MEASUREMENT TARGET: Integrase (Human immunodeficiency virus 1, UniProt T1QYY3, G140S/Q148H)
- METHOD: Inhibition of HIV-1 integrase RAL-resistant G140S/Q148H double mutant
ATTRIBUTE MEASURED: EC50

ENTRY SMILES: O=C(NCc1c(F)cc(F)cc1F)c1cn2c(c(O)c1=O)C(=O)N1[C@H]3CC[C@H](C3)O[C@@H]1C2
ATTRIBUTE MEASURED: EC50
VALUE: ≤ 5 nM
